Every entry's value here was drawn from patent US10799507B2.

Property: EC50; scope: individual molecules
# measured.target: JAK3 (Homo sapiens (Human), UniProt P52333)
# Sequence (P52333 822-1111): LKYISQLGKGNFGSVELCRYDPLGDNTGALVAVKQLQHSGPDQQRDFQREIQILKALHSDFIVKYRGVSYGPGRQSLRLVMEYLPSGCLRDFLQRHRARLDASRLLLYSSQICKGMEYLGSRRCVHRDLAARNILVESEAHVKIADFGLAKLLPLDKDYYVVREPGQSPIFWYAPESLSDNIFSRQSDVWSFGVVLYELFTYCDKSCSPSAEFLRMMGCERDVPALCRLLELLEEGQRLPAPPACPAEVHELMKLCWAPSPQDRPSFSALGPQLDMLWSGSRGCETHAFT
# method.summary: JAK kinase assay (HTRF), JAK3
# condition.set: catalytic domain, ATP at Km (2 μM)

| molecule | EC50 |
| --- | --- |
| N#Cc1ccc([C@H](O)CNC(=O)[C@H]2CCN(c3ncnc4[nH]ccc34)CC23CC3)cc1 | 4.9 nM |
| C[C@H](NC(=O)[C@H]1CCN(c2ncnc3[nH]ccc23)CC12CC2)[C@@H](O)C1CCCCC1 | 3.4 nM |
| N#CC1CC(CNC(=O)C2CCN(c3ncnc4[nH]ccc34)CC23CC3)C1 (stereo not drawn) | 24.5 nM |
| N#Cc1ccc(CNC(=O)[C@@H]2CCN(c3ncnc4[nH]ccc34)CC23CC3)cc1 | 176 nM |
| Cc1cc([C@H](O)[C@H](C)NC(=O)[C@H]2CCN(c3ncnc4[nH]ccc34)CC23CC3)ncc1F | 102 nM |
| O=C(N[C@@H](CO)c1ccccc1)C1CCN(c2ncnc3[nH]ccc23)CC12CC2 (stereo partly drawn) | 29.1 nM |

* * *

# measured.target: UniProt P52333
# method.summary: JAK kinase assay (HTRF), JAK3
# condition.set: catalytic domain, ATP at Km (2 μM)
pEC50: −log10 of the molar value.
List of pEC50 values.

| molecule | measured.target | pEC50 |
| --- | --- | --- |
| N#Cc1ccc([C@H](CO)NC(=O)[C@H]2CCN(c3ncnc4[nH]ccc34)CC23CC3)nc1 | UniProt P52333 | 7.49 |
| COc1cc(F)ccc1[C@H](CO)NC(=O)[C@H]1CCN(c2ncnc3[nH]ccc23)CC12CC2 | UniProt P52333 | 6.95 |
| N#Cc1cccc([C@H](CO)NC(=O)[C@H]2CCN(c3ncnc4[nH]ccc34)CC23CC3)c1 | UniProt P52333 | 7.86 |
| N#Cc1ccc(CNC(=O)C2CCN(c3ncnc4[nH]ccc34)CC23CC3)nc1 (stereo not shown) | UniProt P52333 | 7.27 |
| O=C(N[C@H](CO)c1ccccn1)[C@H]1CCN(c2ncnc3[nH]ccc23)CC12CC2 | UniProt P52333 | 6.83 |
| C[C@H](NC(=O)[C@H]1CCN(c2ncnc3[nH]ccc23)CC12CC2)[C@@H](O)c1cccnc1 | UniProt P52333 | 7.53 |
| O=C(OCC1CC(F)(F)C1)[C@@H]1CCN(c2ncnc3[nH]ccc23)CC12CC2 | UniProt P52333 | 6.84 |
| O=C(NCC1CC(F)(F)C1)[C@H]1CCN(c2ncnc3[nH]ccc23)CC12CC2 | UniProt P52333 | 7.80 |
| C[C@H](NC(=O)C1CCN(c2ncnc3[nH]ccc23)CC12CC2)c1ccc(C#N)cc1 (stereo partly shown) | UniProt P52333 | 8.11 |
| O=C(N[C@@H](CO)c1ccc(F)cc1F)[C@H]1CCN(c2ncnc3[nH]ccc23)CC12CC2 | UniProt P52333 | 8.19 |
| O=C(N[C@H](CO)C(=O)OCc1ccccc1)[C@H]1CCN(c2ncnc3[nH]ccc23)CC12CC2 | UniProt P52333 | 7.61 |
| O=C(NCC1(O)CCCC1)[C@H]1CCN(c2ncnc3[nH]ccc23)CC12CC2 | UniProt P52333 | 7.58 |
| N#Cc1ccc([C@@H](CO)NC(=O)C2CCN(c3ncnc4[nH]ccc34)CC23CC3)cc1 (stereo partly shown) | UniProt P52333 | 7.04 |
| O=C(NCc1cccc(F)c1)C1CCN(c2ncnc3[nH]ccc23)CC12CC2 (stereo not shown) | UniProt P52333 | 7.42 |
| C[C@@](CO)(NC(=O)[C@H]1CCN(c2ncnc3[nH]ccc23)CC12CC2)c1ccc(C#N)cc1 | UniProt P52333 | 8.01 |
| O=C(N[C@H](CO)C(=O)OCC1(CO)CCC1)[C@H]1CCN(c2ncnc3[nH]ccc23)CC12CC2 | UniProt P52333 | 7.35 |
| CCc1cc(C#N)ccc1[C@@H](C)NC(=O)[C@H]1CCN(c2ncnc3[nH]ccc23)CC12CC2 | UniProt P52333 | 6.85 |
| N#Cc1ccc(C(O)CNC(=O)C2CCN(c3ncnc4[nH]ccc34)CC23CC3)cc1 (stereo not shown) | UniProt P52333 | 7.94 |
| COc1ccc([C@@H](C)NC(=O)C2CCN(c3ncnc4[nH]ccc34)CC23CC3)cc1F (stereo partly shown) | UniProt P52333 | 6.84 |
| C[C@@H](NC(=O)C1CCN(c2ncnc3[nH]ccc23)CC12CC2)c1ccc(F)c(F)c1 (stereo partly shown) | UniProt P52333 | 7.29 |
| O=C(NCC(O)C1CCCCC1)[C@H]1CCN(c2ncnc3[nH]ccc23)CC12CC2 (stereo partly shown) | UniProt P52333 | 8.43 |
| CC(CO)(NC(=O)C1CCN(c2ncnc3[nH]ccc23)CC12CC2)c1ccccc1 (stereo not shown) | UniProt P52333 | 7.11 |
| O=C(OCC1(CO)CS(=O)(=O)C1)[C@H]1CCN(c2ncnc3[nH]ccc23)CC12CC2 | UniProt P52333 | 8.82 |
| O=C(OCC1CC(F)(F)C1)C1CCN(c2ncnc3[nH]ccc23)CC12CC2 (stereo not shown) | UniProt P52333 | 8.05 |
| C[C@@H](NC(=O)[C@H]1CCN(c2ncnc3[nH]ccc23)CC12CC2)c1ccc(C#N)c(F)c1 | UniProt P52333 | 7.26 |
| N#Cc1ccc([C@H](O)CNC(=O)[C@@H]2CCN(c3ncnc4[nH]ccc34)CC23CC3)cc1 | UniProt P52333 | 6.56 |
| O=C(NC[C@@H](O)c1ccccc1)[C@H]1CCN(c2ncnc3[nH]ccc23)CC12CC2 | UniProt P52333 | 7.31 |
| O=C(N[C@@H](CO)[C@@H](O)c1ccc(F)cc1)[C@H]1CCN(c2ncnc3[nH]ccc23)CC12CC2 | UniProt P52333 | 8.15 |
| O=C(NCc1ccc(F)cc1)C1CCN(c2ncnc3[nH]ccc23)CC12CC2 (stereo not shown) | UniProt P52333 | 7.68 |
| Cc1cc([C@@H](O)[C@H](C)NC(=O)[C@H]2CCN(c3ncnc4[nH]ccc34)CC23CC3)ncc1F | UniProt P52333 | 6.83 |
| COc1cccc([C@@H](C)NC(=O)C2CCN(c3ncnc4[nH]ccc34)CC23CC3)c1 (stereo partly shown) | UniProt P52333 | 7.00 |

* * *

# method.summary: in vitro metabolic stability in human liver microsomes
# Assay type: in vitro ADME
# condition.set: human, liver microsomes, 0.5 μM compound, 0.5 mg/mL microsomes, NADPH, 40 min, 37° C.; read-out: Human liver microsome Clapp (apparent intrinsic clearance)

| molecule | relation | CLint scaled at 0.5 μM [mL/min/kg] |
| --- | --- | --- |
| N#CC1CC(CNC(=O)C2CCN(c3ncnc4[nH]ccc34)CC23CC3)C1 (stereo not shown) [Example 59] | = | 28 |
| N#Cc1ccc([C@H](CO)NC(=O)C2CCN(c3ncnc4[nH]ccc34)CC23CC3)cc1 (stereo partly shown) [Example 19] | = | 88 |
| O=C(NCC1(O)CCCCC1)[C@H]1CCN(c2ncnc3[nH]ccc23)CC12CC2 [Example 74] | = | 37 |
| O=C(N[C@@H](CO)c1ccc(F)cc1)[C@H]1CCN(c2ncnc3[nH]ccc23)CC12CC2 [Example 17] | = | 43 |
| Cc1cc([C@H](CO)NC(=O)[C@H]2CCN(c3ncnc4[nH]ccc34)CC23CC3)ccc1C#N [Example 54] | = | 142 |
| O=C(NC[C@@H](O)c1ccc(F)cc1)[C@H]1CCN(c2ncnc3[nH]ccc23)CC12CC2 [Example 7] | > | 200 |
| N#CCC1(COC(=O)C2CCN(c3ncnc4[nH]ccc34)CC23CC3)CC1 (stereo not shown) [Example 164] | > | 200 |

* * *

# method.summary: in vitro metabolic stability in human liver microsomes
# Format: in vitro ADME
# condition.set: human, liver microsomes, 0.5 μM compound, 0.5 mg/mL microsomes, NADPH, 40 min, 37° C.; read-out: Human liver microsome Clapp (apparent intrinsic clearance)
# maps each entry to its CLint scaled at 0.5 μM

| compound | unit.of.measure | relation | CLint scaled at 0.5 μM |
| --- | --- | --- | --- |
| O=C(NC[C@H](O)C1CCCC1)[C@H]1CCN(c2ncnc3[nH]ccc23)CC12CC2 [Example 11] | mL/min/kg | = | 148 |
| N#Cc1ccc([C@@H](O)CNC(=O)[C@H]2CCN(c3ncnc4[nH]ccc34)CC23CC3)cc1 [Example 29] | mL/min/kg | = | 115 |
| C[C@@](CO)(NC(=O)[C@H]1CCN(c2ncnc3[nH]ccc23)CC12CC2)c1ccc(C#N)cn1 [Example 57] | mL/min/kg | = | 39 |
| O=C(NC[C@@H](O)c1ccc(F)cn1)[C@H]1CCN(c2ncnc3[nH]ccc23)CC12CC2 [Example 12] | mL/min/kg | = | 143 |
| C[C@H](NC(=O)[C@H]1CCN(c2ncnc3[nH]ccc23)CC12CC2)[C@@H](O)c1ccc(F)cc1 [Example 6] | mL/min/kg | > | 200 |
| N#Cc1ccc([C@H](CO)NC(=O)[C@H]2CCN(c3ncnc4[nH]ccc34)CC23CC3)cc1 [Example 18] | mL/min/kg | = | 44 |
| O=C(NCC1(O)CCCC1)[C@H]1CCN(c2ncnc3[nH]ccc23)CC12CC2 [Example 49] | mL/min/kg | = | 35 |
| O=C(OCC1(CO)CCC1)[C@H]1CCN(c2ncnc3[nH]ccc23)CC12CC2 [Example 157] | mL/min/kg | > | 200 |
